B1: glmS ribozyme (parent)
chain: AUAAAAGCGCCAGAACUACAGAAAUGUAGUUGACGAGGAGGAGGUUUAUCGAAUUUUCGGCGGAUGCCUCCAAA

variants of: B1; experiment: self-cleavage kobs at 640 uM GlcN6P; higher = faster cleavage; RNA array; settings: with glucosamine-6-phosphate
Variants at the floor of the assay were thinned out.
Recorded self-cleavage kobs at 640 uM GlcN6P by entry

>  <mutation-annotation>
G9A G62U G66U

>  <self-cleavage kobs at 640 uM GlcN6P>
< 1e-05 s⁻¹

$$$$
>  <mutation-annotation>
C10G A48U

>  <self-cleavage kobs at 640 uM GlcN6P>
< 1e-05 s⁻¹

$$$$
>  <mutation-annotation>
C16A G29A

>  <self-cleavage kobs at 640 uM GlcN6P>
0.000549 s⁻¹

$$$$
>  <mutation-annotation>
A42C G44A U49C

>  <self-cleavage kobs at 640 uM GlcN6P>
< 1e-05 s⁻¹

$$$$
>  <mutation-annotation>
U30G C68U

>  <self-cleavage kobs at 640 uM GlcN6P>
0.000154 s⁻¹

$$$$
>  <mutation-annotation>
G9A G35A

>  <self-cleavage kobs at 640 uM GlcN6P>
< 1e-05 s⁻¹

$$$$
>  <mutation-annotation>
A6C G7A G29A C71U

>  <self-cleavage kobs at 640 uM GlcN6P>
< 1e-05 s⁻¹

$$$$
>  <mutation-annotation>
C16G U30G

>  <self-cleavage kobs at 640 uM GlcN6P>
4.35e-05 s⁻¹

$$$$
>  <mutation-annotation>
C10U C11G A33U

>  <self-cleavage kobs at 640 uM GlcN6P>
< 1e-05 s⁻¹

$$$$
>  <mutation-annotation>
G35U G60C

>  <self-cleavage kobs at 640 uM GlcN6P>
< 1e-05 s⁻¹

$$$$
>  <mutation-annotation>
U30C G66A

>  <self-cleavage kobs at 640 uM GlcN6P>
3.92e-05 s⁻¹

$$$$
>  <mutation-annotation>
G66A C68G

>  <self-cleavage kobs at 640 uM GlcN6P>
5.08e-05 s⁻¹

$$$$
>  <mutation-annotation>
G13A U54C C70U

>  <self-cleavage kobs at 640 uM GlcN6P>
9.94e-05 s⁻¹

$$$$
>  <mutation-annotation>
A15C U56A

>  <self-cleavage kobs at 640 uM GlcN6P>
0.00107 s⁻¹

$$$$
>  <mutation-annotation>
G9A C10A G13C G29C

>  <self-cleavage kobs at 640 uM GlcN6P>
< 1e-05 s⁻¹

$$$$
>  <mutation-annotation>
U30A U45A

>  <self-cleavage kobs at 640 uM GlcN6P>
0.00285 s⁻¹

$$$$
>  <mutation-annotation>
G29C U30G

>  <self-cleavage kobs at 640 uM GlcN6P>
0.00138 s⁻¹

$$$$
>  <mutation-annotation>
A6U A53G

>  <self-cleavage kobs at 640 uM GlcN6P>
5.15e-05 s⁻¹

$$$$
>  <mutation-annotation>
C8U G9U

>  <self-cleavage kobs at 640 uM GlcN6P>
< 1e-05 s⁻¹

$$$$
>  <mutation-annotation>
A53G C68U

>  <self-cleavage kobs at 640 uM GlcN6P>
0.00399 s⁻¹

$$$$
>  <mutation-annotation>
G40A G41C

>  <self-cleavage kobs at 640 uM GlcN6P>
4.87e-05 s⁻¹

$$$$
>  <mutation-annotation>
G29A G38A U65G

>  <self-cleavage kobs at 640 uM GlcN6P>
< 1e-05 s⁻¹

$$$$
>  <mutation-annotation>
U31G G38U A53G C68A C71A

>  <self-cleavage kobs at 640 uM GlcN6P>
0.000204 s⁻¹

$$$$
>  <mutation-annotation>
A36U A48G

>  <self-cleavage kobs at 640 uM GlcN6P>
< 1e-05 s⁻¹

$$$$
>  <mutation-annotation>
C10A G13U G37U G60A U65A

>  <self-cleavage kobs at 640 uM GlcN6P>
< 1e-05 s⁻¹

$$$$
>  <mutation-annotation>
U47G U57G C61G C67U

>  <self-cleavage kobs at 640 uM GlcN6P>
0.000132 s⁻¹

$$$$
>  <mutation-annotation>
A36G A52G

>  <self-cleavage kobs at 640 uM GlcN6P>
< 1e-05 s⁻¹

$$$$
>  <mutation-annotation>
G44A U47G

>  <self-cleavage kobs at 640 uM GlcN6P>
5.51e-05 s⁻¹

$$$$
>  <mutation-annotation>
U31G C34U

>  <self-cleavage kobs at 640 uM GlcN6P>
< 1e-05 s⁻¹

$$$$
>  <mutation-annotation>
A6G G9A

>  <self-cleavage kobs at 640 uM GlcN6P>
< 1e-05 s⁻¹

$$$$
>  <mutation-annotation>
A64C C68G C70G

>  <self-cleavage kobs at 640 uM GlcN6P>
< 1e-05 s⁻¹

$$$$
>  <mutation-annotation>
C10U A15C G43U G63U

>  <self-cleavage kobs at 640 uM GlcN6P>
< 1e-05 s⁻¹

$$$$
>  <mutation-annotation>
C8G C50G

>  <self-cleavage kobs at 640 uM GlcN6P>
0.00014 s⁻¹

$$$$
>  <mutation-annotation>
A6G C34A

>  <self-cleavage kobs at 640 uM GlcN6P>
< 1e-05 s⁻¹

$$$$
>  <mutation-annotation>
C16G U31G

>  <self-cleavage kobs at 640 uM GlcN6P>
0.000186 s⁻¹

$$$$
>  <mutation-annotation>
G29C C71G

>  <self-cleavage kobs at 640 uM GlcN6P>
3.96e-05 s⁻¹

$$$$
>  <mutation-annotation>
G35A G51A C58U

>  <self-cleavage kobs at 640 uM GlcN6P>
< 1e-05 s⁻¹

$$$$
>  <mutation-annotation>
A42U U47A U54C

>  <self-cleavage kobs at 640 uM GlcN6P>
3.85e-05 s⁻¹

$$$$
>  <mutation-annotation>
G32U U55A C71A

>  <self-cleavage kobs at 640 uM GlcN6P>
9.04e-05 s⁻¹

$$$$
>  <mutation-annotation>
C16G G40C

>  <self-cleavage kobs at 640 uM GlcN6P>
8.17e-05 s⁻¹

$$$$
>  <mutation-annotation>
G9U G62C C67U

>  <self-cleavage kobs at 640 uM GlcN6P>
< 1e-05 s⁻¹

$$$$
>  <mutation-annotation>
A18C U56C U65G

>  <self-cleavage kobs at 640 uM GlcN6P>
5.82e-05 s⁻¹

$$$$
>  <mutation-annotation>
A12U A33G A48C

>  <self-cleavage kobs at 640 uM GlcN6P>
< 1e-05 s⁻¹

$$$$
>  <mutation-annotation>
A12U U54G

>  <self-cleavage kobs at 640 uM GlcN6P>
0.0495 s⁻¹

$$$$
>  <mutation-annotation>
A12U G43A

>  <self-cleavage kobs at 640 uM GlcN6P>
4.88e-05 s⁻¹

$$$$
>  <mutation-annotation>
C34U A42C

>  <self-cleavage kobs at 640 uM GlcN6P>
< 1e-05 s⁻¹

$$$$
